Provenance of the data: the emibetuzumab library of Makowski et al. (2022)

B1: VH:VL chains; a variant is named by its letters at X, in order (parent)
chain 1: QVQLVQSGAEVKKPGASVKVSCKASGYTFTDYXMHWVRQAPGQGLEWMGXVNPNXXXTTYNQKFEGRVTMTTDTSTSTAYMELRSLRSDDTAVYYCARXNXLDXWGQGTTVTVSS
chain 2: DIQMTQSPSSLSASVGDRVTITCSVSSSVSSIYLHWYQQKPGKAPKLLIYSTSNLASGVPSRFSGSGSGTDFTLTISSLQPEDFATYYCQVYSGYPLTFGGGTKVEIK

Variants of: B1
Protocol description: yeast display scFab, FACS + sequencing
Reported property: non-specific binding call

Mutant designation	non-specific binding call
DGGGNVSD	no binding
VRAGSSLD	no binding
FRGRDFAD	binds
ARGKGSGD	binds
DAGGGAAV	no binding
YRGKGSWA	binds

YGKRDASY has a reported non-specific binding call of binds

Given item VGGTSSSA , the value recorded as its non-specific binding call is no binding

So for YRGRSAGY , the logged non-specific binding call turned out to be binds

get_value(item= VKAAGSVD , readout=non-specific binding call) returns binds

The recorded non-specific binding call for entry FRARGAGA equals binds
